Experiment: Clearance in iv dosed rat
Format: ADME, organism-based
Details: in vivo
endpoint_label: clearance (mL/min/kg)
The response must be a number in mL/min/kg with no trailing unit.

Find the recorded clearance belonging to `CC(C)c1onc(-c2c(Cl)cccc2Cl)c1COc1ccc(-c2ccc3c(C(=O)O)cccc3c2)cc1` and report it.
57

###

Biological target: Bile acid receptor (Homo sapiens, UniProt Q96RI1)
Sequence (Q96RI1 whole entry): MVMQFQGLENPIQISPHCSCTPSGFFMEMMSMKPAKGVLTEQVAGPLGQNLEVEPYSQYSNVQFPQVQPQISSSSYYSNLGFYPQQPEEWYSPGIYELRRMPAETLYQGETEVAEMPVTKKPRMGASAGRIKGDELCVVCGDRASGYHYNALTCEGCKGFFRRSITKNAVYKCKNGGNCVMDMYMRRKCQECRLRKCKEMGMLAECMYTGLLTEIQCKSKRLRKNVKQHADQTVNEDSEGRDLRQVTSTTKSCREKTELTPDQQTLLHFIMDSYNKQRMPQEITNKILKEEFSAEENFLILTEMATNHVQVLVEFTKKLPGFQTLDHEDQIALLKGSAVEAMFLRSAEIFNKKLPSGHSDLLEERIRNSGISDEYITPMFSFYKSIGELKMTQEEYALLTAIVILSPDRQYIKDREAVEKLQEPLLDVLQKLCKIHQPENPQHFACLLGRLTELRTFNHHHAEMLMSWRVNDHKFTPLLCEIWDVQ
Test: Agonist activity at FXR assessed as receptor-SRC-1 peptide interaction by FRET assay
Type: functional
Recorded EC50, one value per entry.
The response must be a number in nM with no trailing unit.

// solved cases for EC50 follow
smiles_code=CC(C)c1onc(-c2c(Cl)cccc2Cl)c1COc1ccc(-c2ccc3cccc(C(=O)O)c3c2)cc1 system="Bile acid receptor (Homo sapiens, UniProt Q96RI1)" endpoint_label=EC50 measure_unit=nM measured_value=2300
smiles_code=CC(C)c1onc(-c2c(Cl)cccc2Cl)c1COc1ccc(-c2ccc3c(C(=O)O)cccc3c2)cc1 system="Bile acid receptor (Homo sapiens, UniProt Q96RI1)" endpoint_label=EC50 measure_unit=nM measured_value=87
smiles_code=CC(C)c1onc(-c2c(Cl)cccc2Cl)c1COc1ccc(-c2ccc3cc(C(=O)O)ccc3c2)cc1 system="Bile acid receptor (Homo sapiens, UniProt Q96RI1)" endpoint_label=EC50 measure_unit=nM measured_value=100

Proceed to the following item.
Find the recorded EC50 belonging to `CC(C)c1onc(-c2c(Cl)cccc2Cl)c1COc1ccc(-c2ccc3ccc(C(=O)O)cc3c2)cc1` and report it.
420

###

Assay: Volume of distribution at steady state in iv dosed Beagle dog
Type: ADME, organism-based, Canis lupus familiaris
Conditions: in vivo, read-out: Vdss
endpoint_label: Vd (L/kg)
The response must be a number in L/kg with no trailing unit.

Find the recorded Vd belonging to `CC(C)c1onc(-c2c(Cl)cccc2Cl)c1COc1ccc(-c2ccc3c(C(=O)O)cccc3c2)cc1` and report it.
0.48

###

Assay: Clearance in iv dosed mouse
Type: ADME, organism-based
Settings: in vivo
endpoint_label: clearance (mL/min/kg)
The response must be a number in mL/min/kg with no trailing unit.

Find the recorded clearance belonging to `CC(C)c1onc(-c2c(Cl)cccc2Cl)c1COc1ccc(-c2ccc3c(C(=O)O)cccc3c2)cc1` and report it.
7

###

Test: Half life in iv dosed mouse
Format: ADME, organism-based
Details: in vivo
endpoint_label: half-life (h)
The response must be a number in h with no trailing unit.

Find the recorded half-life belonging to `CC(C)c1onc(-c2c(Cl)cccc2Cl)c1COc1ccc(-c2ccc3c(C(=O)O)cccc3c2)cc1` and report it.
1.6

These entries and their values trace back to ChEMBL document CHEMBL1155854.
